# assay-overview: Plasma kinetics in rat following intravenous and oral administration
# Type: in vivo, Sprague Dawley rats
# assay-conditions: male, Sprague Dawley, rat, plasma, po, 10 mg/kg, oral 10 mg/kg, male rats; from mean plasma concentrations; read-out: time post dose at which maximum plasma concentration was observed (tmax)
property-label: Tmax (h)
Give the value in h but do not write h after it.

Some solved cases for reference:
{"columns": ["compound", "Tmax / h"],
 "data": [
  ["N=C(N)NN=CC=Cc1cccn1-c1ccccc1[N+](=O)[O-] [Compound 2, acetate]", 2.5],
  ["N=C(N)NN=CC=Cc1cccn1-c1ccccc1Br [Compound 3, acetate]", 4]
]}

# next compound below
Ask: # query: Tmax of entry N=C(N)NN=CC=Cc1cccn1-c1ccc(Cl)cc1 [Compound 1, acetate]
Reply: 8
